- testDetails: Therapeutic index as the ratio of LD50 to ED50 of the compound
Property: selectivity ratio; scope: individual molecules
resultType: selectivity ratio

[
  {
    "molecule": "O=P1(N(CCCl)CCCl)NCCCO1 (configuration not stated) [CYCLOPHOSPHAMIDE ANHYDROUS]",
    "resultType": "selectivity ratio",
    "recordedMeasurement": 116
  },
  {
    "molecule": "[2H]C1([2H])CNP(=O)(N(CCCl)CCCl)OC1 (configuration not stated)",
    "resultType": "selectivity ratio",
    "recordedMeasurement": 58
  }
]

* * *

- testDetails: Compound was tested for dose required to kill 50 % of ADJ/PC6 mouse plasma cell tumor in a group
resultType: LD50 (mg/kg)

[
  {
    "compound": "O=P1(N(CCCl)CCCl)NCCCO1 (configuration not stated) [CYCLOPHOSPHAMIDE ANHYDROUS]",
    "recordedMeasurement": 260
  },
  {
    "compound": "[2H]C1([2H])CNP(=O)(N(CCCl)CCCl)OC1 (configuration not stated)",
    "recordedMeasurement": 700
  }
]
